Here the recorded 결합력 % is given for each entry.
- test-target: CADM1 on small cell lung cancer cell lines H146 and H69 (human) (UniProt Q9BY67)
- assay-overview: flow cytometry, 1 ug scFv on 5x10^5 H146 cells, PE anti-HA
Answer with a number only, understood to be in %.

Previously resolved entries follow.
| binder | 결합력 % (%) |
| --- | --- |
| 4A8 (scFv, V domains shown) VH: AVTLDESGGGLQTPGGGLSLVCKASGFTFSSYAMNWVRQAPGKGLEFVAQITSSGRYTYYGTAVKGRATISRDNGQSTVRLQLNNLRAEDSGTYYCAKDAAAGYYDGATAGDIDAWGHGTEVIVSS VL: LTQPSSVSANLGGTVKITCSGGSGSNHYGWYQQKSPGSAPVTVIYSNNKRPSNIPSRFSGSKFGSTATLTITGVQADDEAVYYCGGYDSSAGYIGPFGAGTTLTVL | 9.7 |
| RH6 (scFv, V domains shown) VH: AVTLDESGGGLQTPGGGLSLVCKGSGFTFSSYAMNWVRQAPGKGLEFVAQITSSGRYTYYGTAVKGRATISRDNGQSTVRLQLNNLRAEDSGTYYCAKDAAAGYYDGATAGDIDAWGHGTEVIVSS VL: VTQPSSVSANPGESVKITCSGGSYSYGWYQQKSPGSAPVTVIYSNNQRPSNIPSRFSGSTSGSTSTLTITGVQADDEAVYFCGTFDSSTNAAFGAGTTLTVL | 4.5 |
| 4A2 (scFv, V domains shown) VH: AVTLDESGGGLQTPGRALSLACKGSGFTFSSYAMNWVRQAPGKGLEFVAQITSSGRYTYYGTAVKGRATISRDNGQSTVRLQLNNLRAEDSGTYYCAKDAAAGYYDGATAGDIDAWGHGTEVIVSS VL: LTQPSSVSANPGETVKITCSGGYNRYGWYQQKSPGSAPVTVIYSNNQRPSNIPSRFSGSKSGSTATLTITGVQAEDEAVYYCGSYDSSDGYAGIFGAGTTLTVL | 10.2 |

Attention now shifts to the item below.
Bench note: what 결합력 % did RB11 (scFv, V domains shown) VH: AVTLDESGGGLQTPGGGLSLVCKGSGFTFSSYAMNWVRQAPGKGLEFVAQITSSGRYTYYGTAVKGRATISRDNGQSTVRLQLNNLRAEDSGTYYCAKDAAAGYYDGATAGDIDAWGHGTEVIVSS VL: LTQPSSVSANPGGTVKITCSGGSGSYGWFQQKAPGSAPVTLIYANTNRPSDIPSRFSGSKSGSTATLTITGVQVEDEAVYYCGSTDSSYVSIFGAGTTLTVL show?
33.6
